Taken from patent US20210277061A1.

Biological target: T1, AF9 YEATS domain, His-AF9 (1-138) (human, UniProt P42568 1-138)
T1 construct: Expressed in E. coli; not shown: His tag
T1 sequence (looked up): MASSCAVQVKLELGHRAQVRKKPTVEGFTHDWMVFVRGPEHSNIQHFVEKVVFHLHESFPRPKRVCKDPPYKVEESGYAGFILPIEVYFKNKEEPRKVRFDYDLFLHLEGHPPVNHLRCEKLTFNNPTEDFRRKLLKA
Assay: photo-cross-linking competition vs photoaffinity probe, in-gel fluorescence
No end group written: not given here. *: point of attachment. 2Furoyl = O=C(c1ccco1)*; Cbz = O=C(OCc1ccccc1)*
reportedMetric: pIC50
Quick note: pIC50 means taking -log10 of the concentration in moles per liter.

Given the binder QTARK(2Furoyl)-NH2 (not fully specified (N-terminus), Full structure only as drawing) [compound 74 (competitor Cbz-4)] , what is its reported pIC50?
6.65

Need pIC50 of Cbz-QTWRK(2Furoyl)-NH2 (SMILES C[C@@H](O)[C@H](NC(=O)[C@H](CCC(N)=O)NC(=O)OCc1ccccc1)C(=O)N[C@@H](Cc1c[nH]c2ccccc12)C(=O)N[C@@H](CCCNC(=N)N)C(=O)N[C@@H](CCCCNC(=O)c1ccco1)C(N)=O, Full structure only as drawing) [compound 49 (competitor A7-W)] , thanks.
6.50

Query (binder): Cbz-QTLRK(2Furoyl)-NH2 (SMILES CC(C)C[C@H](NC(=O)[C@@H](NC(=O)[C@H](CCC(N)=O)NC(=O)OCc1ccccc1)[C@@H](C)O)C(=O)N[C@@H](CCCNC(=N)N)C(=O)N[C@@H](CCCCNC(=O)c1ccco1)C(N)=O, Full structure only as drawing) [compound 47 (competitor A7-L)] ; field requested: pIC50
6.47
